B1: HDV Ribozyme (parent)
chain: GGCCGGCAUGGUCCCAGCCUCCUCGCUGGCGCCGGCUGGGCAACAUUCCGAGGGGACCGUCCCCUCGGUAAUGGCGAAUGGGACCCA

- Variants of: B1
- EXPERIMENTAL DETAILS: self-cleavage, relative activity (ratio to wild type); higher = more cleavage; co-transcriptional
Give measured self-cleavage for each item. Keep answers brief.
One number for each entry.

Consider the following illustrative entries.
1) GGCCGGCAUGGUCCGAGCCUCCUCGCUGGCGCCGGCUGGGCAACAUUCCGAGGGGACCGUCCCCUCGGUAAUGGCGAAUGGGACCUA [C15G C86U] : 0.791
2) GGCCGGCAUGGUCCCAGCCUCCUCGCUGGCGCCGGCUGGGCAACAUUCCGAGGUGACCGUCCCCUCGGUAAUGGCGAACGGGACCCA [G54U U79C] : 0.513
3) GGCCGGCAUGGUCCCAGCCUCCUCGCUGGCGCCGGCUGGGCAACAUUCCGAGCGGACCGUCCCCUCGGUAGUGGCGAAUGGGACCCA [G53C A71G] : 1.07

# return self-cleavage for each item in the list
1. GACCGGCAUGGUCCCAGCCUCCUCGCUGGCGCCGGCUGGGCAACAUUCCGAGGGGACCGCCCCCUCGGUAAUGGCGAAUGGGACCCA [G2A U60C]
2. UGCCGGCAUGGUCCCAGCCUCCUCACUGGCGCCGGCUGGGCAACAUUCCGAGGGGACCGUCCCCUCGGUAAUGGCGAAUGGGACCCA [G1U G25A]

output:
[0.354, 0.354]
